The reader will find reported huEGFR+ mcl-1-/- MEF EC50 values listed item by item below.
- target: human EGFR (huEGFR) over-expressed on mcl-1-/- mouse embryonic fibroblasts (human, UniProt P00533 25-1210)
- test details: cell-based or functional assay
quantity name: huEGFR+ mcl-1-/- MEF EC50 (nM)

{"binder": "AbA-KZ (antibody, human IgG1, kappa, V domains shown, synthon KZ on reduced interchain cysteines; average DAR 2 per ADC) VH: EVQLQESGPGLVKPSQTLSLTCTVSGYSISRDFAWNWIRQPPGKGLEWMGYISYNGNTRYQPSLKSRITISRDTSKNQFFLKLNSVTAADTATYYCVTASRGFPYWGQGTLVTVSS VL: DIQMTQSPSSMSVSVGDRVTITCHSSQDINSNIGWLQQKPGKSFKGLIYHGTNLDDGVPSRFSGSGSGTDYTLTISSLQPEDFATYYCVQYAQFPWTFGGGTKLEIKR", "assay value": 152}
{"binder": "AbK-LB (antibody, human IgG1, kappa, V domains shown, synthon LB on reduced interchain cysteines; average DAR 1.8 per ADC) VH: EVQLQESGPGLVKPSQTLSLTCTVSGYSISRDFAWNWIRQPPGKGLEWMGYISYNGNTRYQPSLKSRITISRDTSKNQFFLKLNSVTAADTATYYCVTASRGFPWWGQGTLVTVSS VL: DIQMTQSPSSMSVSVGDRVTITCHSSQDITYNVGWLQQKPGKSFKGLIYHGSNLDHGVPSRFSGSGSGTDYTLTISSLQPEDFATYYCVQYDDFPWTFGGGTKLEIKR", "assay value": 17}
{"binder": "AbG-AAA (antibody, human IgG1, kappa, V domains shown, synthon AAA on reduced interchain cysteines; average DAR 1.9 per ADC) VH: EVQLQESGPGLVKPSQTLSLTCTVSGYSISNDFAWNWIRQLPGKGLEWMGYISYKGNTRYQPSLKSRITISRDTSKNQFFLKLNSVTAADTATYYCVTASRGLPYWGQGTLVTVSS VL: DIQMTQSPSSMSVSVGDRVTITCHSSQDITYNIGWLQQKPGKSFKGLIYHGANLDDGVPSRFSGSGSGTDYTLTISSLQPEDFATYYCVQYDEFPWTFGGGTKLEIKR", "assay value": 220}
